Experiment: NFAT Signaling Pathway (AID 444);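 note: carbachol stimulus at about its EC50 of 1 µM final; % is set by controls: 0 for no effect and ±100 for the full control effect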
Conditions: Jurkat NFAT-bla M1, carbachol, beta-lactamase ratio, 5 h; at 7.69 µM (top of the series) unless noted
Protocol: NCGC Assay Overview: The nuclear factor of activated T cells (NFAT) family of transcription factors has been found primarily in most immune system cells and some other non-immune cells. NFAT plays the immunomodulatory role, primarily in T-cell activation and differentiation. […] NCGC Assay Protocol Summary: The cells were prepared in RPMI 1640 medium containing 0.1% dialyzed FBS and 25 mM HEPES at 1.6 x 10^6cell/ml. […] The %Activity was determined from the ratio of 460nm/530nm. […]
Records with an inconclusive call do not appear. Active and inactive are the calls of the source. Calls come from the whole dose curve; as a rule, active = well fitted curve in either direction with a large enough effect (not every such curve was filed as active); inconclusive = small, poorly fitted or top-dose-only effect, or another doubt; inactive = flat fitted curve, though single readings scatter.
propertyMeasured: activity change, negative = inhibition

{"molecule": "O=C(O)c1cccc(CN2CCCCC2)c1", "recordedResult": "-15.5% (inactive)"}
{"molecule": "CN(C)CCCn1cnc2cc(Cl)c(Cl)cc21", "recordedResult": "-23.5% (inactive)"}
{"molecule": "N#C[C@H](C(=O)O)C(c1c(Cl)cccc1Cl)[C@H](C#N)C(=O)O", "recordedResult": "5.02% (inactive)"}
{"molecule": "O=S(=O)(c1ccccc1)N1CN2CN(C1)CN(S(=O)(=O)c1ccccc1)C2", "recordedResult": "-4.88% (inactive)"}
{"molecule": "CCCCCCCCCC[Si](C)(C)CCC(=O)N[C@@H](Cc1ccc(C)cc1)c1ccccc1", "recordedResult": "-7.96% [at 38 µM] (inactive)"}
{"molecule": "Nc1ccc(C(=O)C[C@H](N)C(=O)O)cc1O", "recordedResult": "-4.19% (inactive)"}
{"molecule": "C[C@H]1CCCC2(CC[N+](C)(CCC[N+](C)(C)C)CC2)C1 (stereo not given in full)", "recordedResult": "-5.86% (inactive)"}
{"molecule": "CC1=NN(c2ccc(S(=O)(=O)O)cc2)C(=O)/C1=C\\c1ccc(Cl)cc1", "recordedResult": "7.84% (inactive)"}
{"molecule": "Cc1ccc([C@@H](O)c2cnc(C)n2Cc2ccccc2)cc1", "recordedResult": "-10.9% (inactive)"}
{"molecule": "O=S1(=O)CCN(c2ccccc2CC(c2c[nH]c3ccccc23)c2c[nH]c3ccccc23)CC1", "recordedResult": "-27.4% (inactive)"}

====

Assay: Cell Viability - LYMP2-020 (AID 986);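 note: cells exposed to compound for 24 h at 37 °C; nearly all actives have a fitted effect of over 55% in size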
Settings: series mostly up to 92.2 µM
Records with an inconclusive call do not appear. Calls of active or inactive are those of the source. The call rests on the fitted dose curve; in most records, active means well fitted cell-killing curve with a large enough effect; inconclusive means small, poorly fitted or top-dose-only effect; inactive means flat fitted curve, though single readings scatter.
Outcomes: active, inactive

{"molecule": "Cc1ccc2ccc3cccc4ccc1c2c34", "categoryLabel": "inactive"}
{"molecule": "COc1ccc([N+](=O)[O-])cc1N", "categoryLabel": "inactive"}
{"molecule": "NC(=O)Nc1nc2ccccc2[nH]1", "categoryLabel": "inactive"}
{"molecule": "CC(C)(C)C(=O)C1C(=O)c2ccccc2C1=O", "categoryLabel": "inactive"}
{"molecule": "CCCCCCCCC1CO1 (centres undefined)", "categoryLabel": "inactive"}
{"molecule": "C=C(C#N)C(=O)OCC", "categoryLabel": "inactive"}
{"molecule": "O=C1OC(=O)c2ccccc21", "categoryLabel": "inactive"}
{"molecule": "CC/C=C/C/C=C/C/C=C/CCCCCCCC(=O)OCC", "categoryLabel": "active"}
{"molecule": "C=Cc1cccc(C)c1", "categoryLabel": "inactive"}
{"molecule": "Nc1cnn([C@@H]2O[C@H](CO)[C@@H](O)[C@H]2O)c(=O)n1", "categoryLabel": "inactive"}
{"molecule": "CC(=O)Nc1cccc(C)c1", "categoryLabel": "inactive"}
{"molecule": "O=C(OCc1ccccc1)c1ccccc1O", "categoryLabel": "inactive"}
{"molecule": "O=C(O)/C=C/c1ccc(/C=C/C(=O)O)cc1", "categoryLabel": "inactive"}
{"molecule": "C=CC(=O)CC", "categoryLabel": "inactive"}
{"molecule": "C=CC(=O)OCCCCCCOC(=O)C=C", "categoryLabel": "active"}
{"molecule": "COc1ccc(C)cc1N", "categoryLabel": "inactive"}
{"molecule": "OCC(CBr)(CBr)CBr", "categoryLabel": "inactive"}
{"molecule": "Cc1ccc(N)cc1[N+](=O)[O-]", "categoryLabel": "inactive"}
{"molecule": "O=C(O)c1ccc([N+](=O)[O-])cc1", "categoryLabel": "inactive"}
